Data origin: patent US20150087812A1

The entries below come with measured Fab Binding values attached.
- TARGET OR SYSTEM: recombinant human ATX beta isoform with N-terminal purification tag (human, UniProt Q13822 49-863)
- PROTOCOL: ELISA, Fab-His captured by anti-Fd, 5 nM biotinylated human ATX beta

Past entries and their recorded results:
Fab F133 (VH H134, VL L117) (Fab, V domains shown, Soluble Fab-His) VH: QVQLVQSGAEVKKPGSSVKVSCKASGGTFSSYAISWVRQAPGQGLEWMGGIIPIFGTANYAQKFQGRVTITADESTSTAYMELSSLRSEDTAVYYCARGADSNAVRLVGFDYWGQGTLVTVSS VL: EIVLTQSPGTLSLSPGERATLSCRASQSVAYSSLAWYQQKPGQAPRLLIYAASSRATGIPDRFSGSGSGTDFTLTISRLEPEDFAVYYCQQSNTPPLTFGQGTKVEIK = 1.2e+06 relative chemiluminescence units
Fab F73 (VH H66, VL L67) (Fab, V domains shown, Soluble Fab-His; converted to mAb B6) VH: QVQLVQSGAEVKKPGSSVKVSCKASGGTFSSYAISWVRQAPGQGLEWMGGIIPIFGTANYAQKFQGRVTITADESTSTAYMELSSLRSEDTAVYYCARDLYIYGDLDYWGQGTLVTVSS VL: DIQMTQSPSSLSASVGDRVTITCRASQSIGGWLNWYQQKPGKAPKLLIYTASSLQSGVPSRFSGSGSGTDFTLTISSLQPEDFATYYCQQSYTYPITFGQGTKVEIK = 1.7e+07 relative chemiluminescence units

Next:
Reported Fab Binding ( Fab F86 (VH H80, VL L80) (Fab, V domains shown, Soluble Fab-His; converted to mAb B7) VH: QVQLVQSGAEVKKPGSSVKVSCKASGGTFSSYAISWVRQAPGQGLEWMGGIIPIFGTANYAQKFQGRVTITADESTSTAYMELSSLRSEDTAVYYCARPIGTGYYGFFDYWGQGTLVTVSS VL: DIQMTQSPSSLSASVGDRVTITCRASQSIAKWLNWYQQKPGKAPKLLIYFASSLQSGVPSRFSGSGSGTDFTLTISSLQPEDFATYYCQQSYSTPLTFGQGTKVEIK ) = 4.2e+06 relative chemiluminescence units
